Target: T1, Human PSMA ECD (Lys44-Ala750), N-6xHis (PSMW39) (human, UniProt Q04609 44-750)
T1 construct: also called PSMW39.002; hu PSMA
T1 sequence (Q04609 other isoform, or with tags, fused parts or gaps): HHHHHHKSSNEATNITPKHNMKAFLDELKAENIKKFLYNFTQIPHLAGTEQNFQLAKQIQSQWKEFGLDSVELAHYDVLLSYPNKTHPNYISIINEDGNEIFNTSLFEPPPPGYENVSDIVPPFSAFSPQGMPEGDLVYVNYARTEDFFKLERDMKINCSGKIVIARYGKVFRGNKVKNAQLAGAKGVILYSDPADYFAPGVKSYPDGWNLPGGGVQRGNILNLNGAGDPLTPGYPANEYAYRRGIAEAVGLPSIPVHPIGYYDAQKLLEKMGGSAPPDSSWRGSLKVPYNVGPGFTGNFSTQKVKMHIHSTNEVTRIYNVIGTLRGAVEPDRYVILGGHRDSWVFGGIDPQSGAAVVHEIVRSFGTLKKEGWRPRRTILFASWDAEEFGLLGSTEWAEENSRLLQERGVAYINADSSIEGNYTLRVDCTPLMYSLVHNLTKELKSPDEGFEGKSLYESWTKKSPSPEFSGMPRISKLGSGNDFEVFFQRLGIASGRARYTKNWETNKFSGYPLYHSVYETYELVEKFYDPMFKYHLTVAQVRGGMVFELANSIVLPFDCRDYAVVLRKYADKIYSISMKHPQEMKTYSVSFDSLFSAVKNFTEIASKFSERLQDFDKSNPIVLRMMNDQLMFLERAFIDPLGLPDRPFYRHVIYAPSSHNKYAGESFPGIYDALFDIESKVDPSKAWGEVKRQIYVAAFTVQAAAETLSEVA
Experiment: SPR Biacore 8K, mAb captured by anti-Fc, antigen in solution
Documented Kd across a set of binders
property_measured: Kd (nM)

1) PSMB892 (antibody, human IgG1, lambda, L234A L235A, V domains shown) VH: EVQLVESGGGVVQPGRSLRLSCAASGFTFITYGMHWVRQAPGKGLEWVAVVSFDESNKYYADSVKGRFTISRDNSKNTLYLQMNSLRAEDTAVYYCARALRDGNNWDYFNGMDVWGQGTTVTVSS VL: QSVLTQPPSVSGAPGQRVTISCTGSSSNIGADYDVHWYQHLPGTAPKLLIYGNSNRPSGVPDRFSGSKSGTSASLAITGLQAEDETDYYCQSYDSSLSGWVFGGGTKLTVLG	3.22
2) PSMB897 (antibody, human IgG1, lambda, L234A L235A, V domains shown) VH: EVQLVESGGGLVQPGGSLRLSCAASGFTFSSYAMSWVRQAPGKGLEWVSAISGGSGSTYYADSVKGRFTISRDNSKNTLYLQMNSLRAEDSAVYYCAKDGVGATPYYFDYWGQGTLVTVSS VL: QSVLTQPPSVSAAPGQKVTISCSGSSSNIGNNYVSWYQQLPGTAPKLLIYDNNKRPSGIPDRFSGSKSGTSATLGITGLQTGDEADYYCGTWDSSLSAYVFGTGTKVTVLG	1.28
3) PSMB898 (antibody, human IgG1, lambda, L234A L235A, V domains shown) VH: EVQLVESGGGLVQPGGSLRLSCAASGFTFSSYAMSWVRQAPGKGLEWVSAISGGSGSTYYADSVKGRFTISRDNSKNTLYLQMNSLRAEDSAVYYCAKDGVGATPYYFDYWGQGTLVTVSS VL: QSVLTQPPSVSAAPGQKVTISCSGSSSNIGINYVSWYQQLPGTAPKLLIYDNNKRPSGIPDRFSGSKSGTSATLGITGLQTGDEADYYCGTWDSSLSAVVFGGGTKLTVLG	0.333
